Target: Epidermal growth factor receptor [DEL746-750,T790M,C797S] (Homo sapiens, UniProt P00533, C797S/DEL746-750/T790M)
Sequence (P00533 with tags, fused parts or gaps C797S/DEL746-750/T790M limits assumed): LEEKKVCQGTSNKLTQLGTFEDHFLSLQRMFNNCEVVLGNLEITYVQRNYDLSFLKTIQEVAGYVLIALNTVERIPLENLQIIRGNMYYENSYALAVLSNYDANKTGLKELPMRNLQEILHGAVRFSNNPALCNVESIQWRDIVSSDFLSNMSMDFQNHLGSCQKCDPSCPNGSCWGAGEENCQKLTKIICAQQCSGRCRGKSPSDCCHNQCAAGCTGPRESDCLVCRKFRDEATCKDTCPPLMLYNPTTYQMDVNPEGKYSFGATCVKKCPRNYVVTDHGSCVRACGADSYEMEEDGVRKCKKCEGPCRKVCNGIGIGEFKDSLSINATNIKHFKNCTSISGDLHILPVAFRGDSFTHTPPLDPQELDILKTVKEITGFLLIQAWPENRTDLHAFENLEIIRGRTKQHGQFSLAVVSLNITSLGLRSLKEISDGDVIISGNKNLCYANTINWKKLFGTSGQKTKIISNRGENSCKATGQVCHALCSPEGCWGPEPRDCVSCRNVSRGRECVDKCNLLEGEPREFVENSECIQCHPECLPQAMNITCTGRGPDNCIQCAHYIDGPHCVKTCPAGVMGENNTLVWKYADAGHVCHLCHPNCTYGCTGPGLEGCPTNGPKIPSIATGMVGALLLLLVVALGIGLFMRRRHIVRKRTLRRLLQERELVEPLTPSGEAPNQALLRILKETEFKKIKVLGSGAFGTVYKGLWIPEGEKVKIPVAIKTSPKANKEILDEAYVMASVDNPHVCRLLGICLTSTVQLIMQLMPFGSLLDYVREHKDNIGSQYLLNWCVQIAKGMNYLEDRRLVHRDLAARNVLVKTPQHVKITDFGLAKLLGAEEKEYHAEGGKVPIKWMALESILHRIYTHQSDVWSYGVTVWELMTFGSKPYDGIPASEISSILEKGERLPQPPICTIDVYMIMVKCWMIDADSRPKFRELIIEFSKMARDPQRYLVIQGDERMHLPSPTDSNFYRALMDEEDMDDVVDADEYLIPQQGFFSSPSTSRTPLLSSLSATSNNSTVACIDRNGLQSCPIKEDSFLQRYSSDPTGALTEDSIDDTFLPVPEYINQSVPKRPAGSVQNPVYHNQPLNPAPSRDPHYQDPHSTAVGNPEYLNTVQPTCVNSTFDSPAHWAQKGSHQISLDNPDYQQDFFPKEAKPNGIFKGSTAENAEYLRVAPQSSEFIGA
Assay: Measurement of Inhibitory Ability of the Compounds Represented by Formula 1 According to the Present Invention Against Wild Type EGFR and EGFR Mutants
Quantity Name: pIC50
One number for each entry, as −log10 of the molar value.

Molecule	Recorded Result
COc1cc(N2CCC(N3CCN(C)CC3)CC2)ccc1Nc1ncc(Cl)c(Nc2cccc3c2N(C(C)=O)CCC3)n1 [US20240352000, Example 15]	7.25

Let us examine a further case.
Ask: Field request: pIC50 | item: CCC(=O)N1CCc2cccc(Nc3nc(Nc4ccc(N5CCC(N6CCN(C)CC6)CC5)cc4OC)ncc3Cl)c21 [US20240352000, Example 14]
Result: 7.30

* * *

Molecular target: Epidermal growth factor receptor [DEL746-750,T790M] (Homo sapiens, UniProt P00533, DEL746-750/T790M)
Sequence (P00533 with tags, fused parts or gaps DEL746-750/T790M limits assumed): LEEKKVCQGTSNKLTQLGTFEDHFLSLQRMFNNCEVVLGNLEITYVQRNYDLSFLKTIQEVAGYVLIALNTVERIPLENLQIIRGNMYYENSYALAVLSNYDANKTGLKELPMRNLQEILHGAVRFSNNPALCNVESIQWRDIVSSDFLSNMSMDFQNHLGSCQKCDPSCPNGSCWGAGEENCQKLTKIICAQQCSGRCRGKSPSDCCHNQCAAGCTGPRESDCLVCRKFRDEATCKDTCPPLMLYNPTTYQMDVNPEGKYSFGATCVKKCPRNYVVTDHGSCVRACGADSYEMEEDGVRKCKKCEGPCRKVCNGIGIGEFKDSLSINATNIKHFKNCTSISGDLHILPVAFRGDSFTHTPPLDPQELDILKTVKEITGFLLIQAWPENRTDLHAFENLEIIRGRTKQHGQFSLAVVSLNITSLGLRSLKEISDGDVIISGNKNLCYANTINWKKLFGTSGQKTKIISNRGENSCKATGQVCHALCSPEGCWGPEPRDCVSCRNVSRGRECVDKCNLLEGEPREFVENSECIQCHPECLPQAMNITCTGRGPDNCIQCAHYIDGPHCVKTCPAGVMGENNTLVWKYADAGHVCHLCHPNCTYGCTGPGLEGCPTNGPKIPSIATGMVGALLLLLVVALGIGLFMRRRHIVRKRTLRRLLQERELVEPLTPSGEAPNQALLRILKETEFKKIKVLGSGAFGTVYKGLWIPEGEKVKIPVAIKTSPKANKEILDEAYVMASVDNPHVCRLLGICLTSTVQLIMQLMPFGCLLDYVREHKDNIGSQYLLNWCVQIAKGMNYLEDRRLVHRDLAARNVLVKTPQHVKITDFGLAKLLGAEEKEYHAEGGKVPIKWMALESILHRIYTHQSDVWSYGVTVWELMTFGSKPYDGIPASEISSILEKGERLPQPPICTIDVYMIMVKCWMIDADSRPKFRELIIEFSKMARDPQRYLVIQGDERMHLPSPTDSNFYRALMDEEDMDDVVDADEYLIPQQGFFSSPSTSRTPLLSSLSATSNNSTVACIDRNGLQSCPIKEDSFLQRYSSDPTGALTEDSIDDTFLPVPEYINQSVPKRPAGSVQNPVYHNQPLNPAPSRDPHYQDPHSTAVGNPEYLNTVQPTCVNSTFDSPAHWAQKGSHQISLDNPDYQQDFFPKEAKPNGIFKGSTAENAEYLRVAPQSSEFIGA
Assay: Measurement of Inhibitory Ability of the Compounds Represented by Formula 1 According to the Present Invention Against Wild Type EGFR and EGFR Mutants
Please respond with reported IC50 for every item in the list.
One number for each entry, in nM.

Molecule	Unit Descriptor	IC50
COc1cc(N2CCC(N3CCN(C)CC3)CC2)ccc1Nc1ncc(Cl)c(Nc2cccc3c2N(C(C)=O)CCC3)n1 [US20240352000, Example 15]	nM	73

Let us examine a further case.
Ask: Field request: IC50 | item: CCC(=O)N1CCc2cccc(Nc3nc(Nc4ccc(N5CCC(N6CCN(C)CC6)CC5)cc4OC)ncc3Cl)c21 [US20240352000, Example 14]
Result: 91

* * *

Biological target: Epidermal growth factor receptor [DEL746-750,T790M,C797S] (Homo sapiens, UniProt P00533, C797S/DEL746-750/T790M)
Assay: Measurement of Inhibitory Ability of the Compounds Represented by Formula 1 According to the Present Invention Against Wild Type EGFR and EGFR Mutants
pIC50: −log10 of the molar value.
Quantity Name: pIC50

// worked examples, pIC50 included
Compound	Recorded Result
COc1cc(N(C)CCN(C)C)ccc1Nc1ncc(Cl)c(Nc2cccc3c2N(S(C)(=O)=O)CC3)n1 [US20240352000, Example 3]	> 9.00
COc1cc(N2CCC(N3CCN(C)CC3)CC2)ccc1Nc1ncc(Cl)c(Nc2cccc3c2N(C(C)=O)CC3)n1 [US20240352000, Example 12]	> 9.00

Let us examine a further case.
Ask: Field request: pIC50 | item: COc1cc(N2CCC(N3CCNCC3)CC2)ccc1Nc1ncc(Cl)c(Nc2cccc3c2N(S(C)(=O)=O)CC3)n1 [US20240352000, Example 17]
Result: > 9.00
